From: paper PMC7228129

test: Tissue analysis (internal tissue dose of parent PFAS, bioconcentration factor); format: in vivo, Danio rerio; conditions: zebrafish (Danio rerio), whole larvae (pools of 10, homogenised), other: waterborne exposure in the well medium; nominal 3.1 μM daily 0–5 dpf, 6 dpf larvae; 0.4% DMSO; dry weight 44 μg per larva; read-out: Measured tissue dose
endpoint_label: concentration at 6 dpf

# compound_structure, endpoint_label, obs_value
data = [
    ("O=S(=O)(O)C(F)(F)C(F)(F)C(F)(F)C(F)(F)C(F)(F)C(F)(F)C(F)(F)C(F)(F)F", "concentration at 6 dpf", "678000 ng/g"),
]

* * *

assay: Tissue analysis (internal tissue dose of parent PFAS, bioconcentration factor); format: in vivo, Danio rerio; settings: zebrafish (Danio rerio), whole larvae (pools of 10, homogenised), other: waterborne exposure in the well medium; nominal 14.0 μM daily 0–5 dpf, 6 dpf larvae; 0.4% DMSO; dry weight 44 μg per larva; read-out: Measured tissue dose
endpoint_label: concentration at 6 dpf (ng/g)

# compound_structure, endpoint_label, obs_value
measured = [
    ("O=S(=O)(O)C(F)(F)C(F)(F)C(F)(F)C(F)(F)C(F)(F)C(F)(F)F", "concentration at 6 dpf", 107000),
]
